- System: EKVX NSCLC
- experiment: NCI tumour cell line growth inhibition, 48 h
In this section we review reported TGI values for a set of molecules.

Some solved cases for reference:
COc1ccc(-c2cnc(-c3ccc(OC)cc3)n2-c2cc(OC)c(OC)c(OC)c2)cc1 = > 100 µM
O=C(N/C(=C\c1ccccc1)c1nc2ccccc2c(=O)o1)c1ccccc1 = > 100 µM
CC[C@]12CN3CCc4c([nH]c5ccccc45)[C@@](C(=O)OC)(c4cc5c(cc4OC)N(C)[C@H]4[C@@](O)(C(=O)OC)[C@H](OC(C)=O)[C@]6(CC)C=CCN7CC[C@]54[C@@H]76)CC(C3)[C@H]1O2 (some centres not stated) = > 100 µM
N#Cc1c(-c2ccc([N+](=O)[O-])cc2)c2c([nH]c1=O)-c1ccccc1CCC2 = > 100 µM
COc1ccc(O)c(/C=N\Nc2ccccc2)c1 = > 100 µM
Oc1ccc(N=Nc2ccc(Br)cc2)c(O)c1 = 38.7 µM
O=C(Nc1ccc(I)cc1F)c1cc(Br)ccc1O = 7.22 µM
CCOC(=O)C1=C(C(=O)OCC)SC2(S1)C(C(=O)OCC)=C(C(=O)OCC)Sc1c2ssc1=O = 5.78 µM

Prompt: Enter reported TGI observed with EKVX NSCLC for "COc1ccc(/C=C/c2onc3c(=O)n(C)nc(-c4ccccc4)c23)cc1"
Response: > 100 µM

Prompt: Enter reported TGI observed with EKVX NSCLC for "CSc1nc(-c2ccccc2)[nH]c(=O)n1"
Response: > 100 µM

Prompt: Enter reported TGI observed with EKVX NSCLC for "CCOc1ccc(N(CC(=O)N2CC(=O)Nc3cc(C)c(C)cc32)C(C)=O)cc1"
Response: > 100 µM

Prompt: Enter reported TGI observed with EKVX NSCLC for "O=C(CSCC(=O)N/N=C\c1ccc(F)cc1F)N/N=C\c1ccc(F)cc1F"
Response: > 100 µM

Prompt: Enter reported TGI observed with EKVX NSCLC for "O=S(O)O.O=S(O)O.[Co].[NH2-].[NH2-].[NH2-].[NH2-]"
Response: > 100 µM

Prompt: Enter reported TGI observed with EKVX NSCLC for "CCCCCSc1ccc2nc(NC(=O)OCC)sc2c1"
Response: > 100 µM

Prompt: Enter reported TGI observed with EKVX NSCLC for "O=CCCn1[nH]c(=O)ccc1=O"
Response: > 100 µM

Prompt: Enter reported TGI observed with EKVX NSCLC for O=S(=O)(c1ccccc1)C1CC(c2nc3ccccc3[nH]2)=NO1 (configuration not stated)
Response: > 100 µM

Prompt: Enter reported TGI observed with EKVX NSCLC for CC(=O)OC(C(=O)O)C(OC(C)=O)C(OC(C)=O)C(OC(C)=O)C(=O)O (configuration not stated)
Response: > 100 µM

Prompt: Enter reported TGI observed with EKVX NSCLC for "N#CC1(CCCI)CCCC1"
Response: > 100 µM

Prompt: Enter reported TGI observed with EKVX NSCLC for COc1cccc(C2=NC(C(C)C)CO2)c1OC (configuration not stated)
Response: > 100 µM

Prompt: Enter reported TGI observed with EKVX NSCLC for "COc1cc2c(cc1OC)[C@@H]1C(=O)c3ccc4c(c3O[C@@H]1CO2)C[C@H](C(C)C)O4"
Response: > 48.2 µM

Prompt: Enter reported TGI observed with EKVX NSCLC for "Nc1nc(-c2cccnc2)cc(-c2cc(-c3cccnc3)nc(N)n2)n1"
Response: > 100 µM

Prompt: Enter reported TGI observed with EKVX NSCLC for "NCCCN(CCCCN(CCCN)Cc1ccccc1)Cc1ccccc1"
Response: 96.5 µM

----------
- System: LOX IMVI melanoma
- experiment: NCI tumour cell line growth inhibition, 48 h
measuredParameter: TGI (µM)
Write down the numeric answer in µM and omit the unit.

Cc1ccc(S(=O)(=O)C2=Cc3ccccc3C2(O)c2ccccc2)cc1 (stereo unspecified) = 34.2
Cc1ccc(S(=O)(=O)N(CCN)c2cc3c4c(c2)Oc2cccc5c2C4c2c(cccc2O3)O5)cc1 = 73.4

Prompt: Enter reported TGI observed with LOX IMVI melanoma for "CCOc1ccc(-c2nc3ccc(-c4nc5ccc(N6CCN(C)CC6)cc5[nH]4)cc3[nH]2)cc1"
Response: 0.485

----------
In this section we review reported TGI values for a set of compounds.
- System: NCI-H23 lung
- experiment: NCI tumour cell line growth inhibition, 48 h

C[C@@H]1CC[C@@]2(C)OC(c3ccccc3)[C@H](CO)N2C1=O (stereo partly drawn) = > 100 µM
Cc1n[nH]c(=O)n1C1CC1 = > 100 µM

Prompt: What TGI value was documented for this compound, NC(=O)c1ncn(C2C=CC(CP(=O)(O)O)C2)c1N (stereo not drawn) ?
Response: > 100 µM

----------
- Test system: UACC-257 melanoma
- experiment: NCI tumour cell line growth inhibition, 48 h
measuredParameter: TGI

Some solved cases for reference:
O=C1/C(=C/c2ccccc2Cl)COc2ccc(Br)cc21 = > 100 µM
Cc1cc(C)n(-c2nc(-n3nc(C)cc3C)nc(-n3nc(C)cc3C)n2)n1 = > 100 µM
N#Cc1c(N)nc2c(c1-c1ccc(Cl)cc1)COc1ccc(F)cc1-2 = 90.8 µM
COc1c(Sc2c(SCSc3cnc4ccccc4c3Sc3cnc4ccccc4c3OC)cnc3ccccc23)cnc2ccccc12 = > 100 µM
COc1ccc2c(=O)c3ccoc3[nH]c2c1 = > 100 µM
Cc1c(-c2ccccc2)c(C#N)c2nnn(-c3ccc(Cl)cc3)c(=O)n12 = > 100 µM

Prompt: What TGI value was documented for this compound, "COc1cccc(/C=N\NC(=O)c2ccncc2)c1O" ?
Response: > 100 µM

Prompt: What TGI value was documented for this compound, "COc1cc2c(c(OC)c1OC)-c1ccc(SC)c(=O)cc1[C@@H](NC(=O)c1cccc([N+](=O)[O-])c1)CC2" ?
Response: 33.9 µM

Prompt: What TGI value was documented for this compound, "CCCCCCCCCCCCCCCCc1c(C(=O)OC)nc(NC#N)[nH]c1=O" ?
Response: > 25 µM

Prompt: What TGI value was documented for this compound, "S=C(NCCc1ccccn1)N/N=C(\c1ccccc1)c1ccccn1" ?
Response: > 70.5 µM

Prompt: What TGI value was documented for this compound, CC1(O)CC2C(CC1SC1CC3C(CC1(C)O)C3(C)C)C2(C)C (centres undefined) ?
Response: > 100 µM

Prompt: What TGI value was documented for this compound, CC1(C)C(=O)/C=C\C(=O)C(C)(C)C2=CC=C(O2)C(C)(C)C(=O)C(Br)C(Br)C(=O)C(C)(C)C2=CC=C1O2 (centres undefined) ?
Response: > 100 µM

Prompt: What TGI value was documented for this compound, "O=c1[nH]c2nc3ccccc3c(=O)n2/c1=C/c1ccccc1" ?
Response: > 100 µM

Prompt: What TGI value was documented for this compound, "N#Cc1c(-c2ccc([N+](=O)[O-])cc2)c2c([nH]c1=O)-c1ccccc1CCC2" ?
Response: > 100 µM

----------
In this section we review reported TGI values for a set of compounds.
- System: MDA-MB-435
- experiment: NCI tumour cell line growth inhibition, 48 h
Write down the numeric answer in µM and omit the unit.

O=C1Nc2cccc(Cl)c2/C1=C\c1cccnc1 = 19.8

Attention now shifts to the item below.
Prompt: What TGI value was documented for this compound, "O=C(C[C@@H]1CCCN2CCCC[C@H]12)N1c2ccccc2Sc2ccc(Cl)cc21" ?
Response: 29.3

----------
- System: M14 melanoma
- experiment: NCI tumour cell line growth inhibition, 48 h
measuredParameter: TGI (µM)
Write down the numeric answer in µM and omit the unit.

CCOC(=O)Cc1csc(NC(=O)C(OC(=O)c2ccc(Cl)cc2)c2ccccc2)n1 (centres undefined) = 52

Prompt: What TGI value was documented for this compound, "O=C1c2cc3c(cc2CC12Cc1ccccc1C2)CCC3" ?
Response: 70.6

Prompt: What TGI value was documented for this compound, "O=C1N[C@H]2C(=O)c3c(Br)sc(Br)c3[C@H]2O1" ?
Response: 10.4

Prompt: What TGI value was documented for this compound, "CCOC(=O)c1c(CN2CCNCC2)nc2ccc(Cl)cc2c1-c1ccccc1" ?
Response: 3.85

Prompt: What TGI value was documented for this compound, "COC(=O)c1c(O)ccc2c1c1c(n2CCc2ccc(OC)c(OC)c2)C(=O)c2ccccc2C1=O" ?
Response: 31

Prompt: What TGI value was documented for this compound, "CCOC(=O)C1=C(C(=O)OCC)SC2(S1)C(C(=O)OCC)=C(C(=O)OCC)Sc1c2ssc1=O" ?
Response: 4.94

----------
- Test system: LOX IMVI melanoma
- experiment: NCI tumour cell line growth inhibition, 48 h
In this section we review reported TGI values for a set of compounds.

COC(=O)CN(CC(=O)NCCNC(=O)OC(C)(C)C)C1CCCCC1N(CC(=O)OC)CC(=O)OC (stereo not drawn) = > 100 µM

Prompt: What TGI value was documented for this compound, "Cn1c(=O)c2c(nc3n2CCCC(=O)N3CCCCl)n(C)c1=O" ?
Response: > 100 µM

Prompt: What TGI value was documented for this compound, "CCOC(=O)c1cc(=O)c2cccc3c2n1CCS3" ?
Response: > 100 µM

Values from PubChem BioAssay (NCI)
